# credit: ChEMBL document CHEMBL1201861

tested on: RMG-I; assay: cells; format: functional, cell-based; conditions: Homo sapiens;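 further: growth inhibition of human RMG-I cells, read out with a cell viability assay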
Description: SANGER: Inhibition of human RMG-I cell growth in a cell viability assay.
pIC50: −log10 of the molar value.
value_kind: pIC50

-- ask // returns reported pIC50 for input CCCS(=O)(=O)Nc1ccc(F)c(C(=O)c2c[nH]c3ncc(Cl)cc23)c1F
-- reply < 5.00

-- ask // returns reported pIC50 for input C/C(O)=C(\C#N)C(=O)Nc1cc(Br)ccc1Br
-- reply < 4.80

-- ask // returns reported pIC50 for input N#C/C(=C1/Nc2ccccc2S1)c1ccnc(NCCc2cccnc2)n1
-- reply < 5.10

----------
test system: ABC-1; experiment: cells; assay type: functional, cell-based; conditions: Homo sapiens;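 further: growth inhibition of human ABC-1 cells, read out by a cell viability assay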
Description: SANGER: Inhibition of human ABC-1 cell growth in a cell viability assay.
Collected IC50 values appear next to each entry.

# molecule, IC50
data = [
    ("NC(=O)c1ncn([C@@H]2O[C@H](COP(=O)(O)O)[C@@H](O)[C@H]2O)c1N", "> 2000 µM"),
    ("CCCS(=O)(=O)Nc1ccc(F)c(C(=O)c2c[nH]c3ncc(Cl)cc23)c1F", "> 10 µM"),
]

Note: attention shifts to another entry.
-- ask // returns reported IC50 for input CC(O)(CS(=O)(=O)c1ccc(F)cc1)C(=O)Nc1ccc(C#N)c(C(F)(F)F)c1 (stereo not drawn) [BICALUTAMIDE]
-- reply > 1.02 µM
